Biological target: GSK-3β (AA 1-420) (Homo sapiens, UniProt P49841)
Construct: GSK-3β (AA 1-420)
Sequence (P49841 whole entry, the tested form may be a part): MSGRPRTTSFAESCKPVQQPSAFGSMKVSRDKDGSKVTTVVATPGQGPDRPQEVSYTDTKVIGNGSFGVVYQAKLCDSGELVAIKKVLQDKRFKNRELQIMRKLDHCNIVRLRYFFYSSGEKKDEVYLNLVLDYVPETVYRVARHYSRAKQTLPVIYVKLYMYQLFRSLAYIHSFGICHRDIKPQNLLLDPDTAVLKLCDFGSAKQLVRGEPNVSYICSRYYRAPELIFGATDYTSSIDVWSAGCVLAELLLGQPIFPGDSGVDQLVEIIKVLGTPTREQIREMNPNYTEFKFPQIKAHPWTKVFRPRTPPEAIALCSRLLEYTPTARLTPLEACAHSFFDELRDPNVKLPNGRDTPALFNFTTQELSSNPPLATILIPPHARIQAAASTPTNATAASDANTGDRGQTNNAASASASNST
Assay: Ki determination for the inhibition of GSK-3, standard coupled enzyme system
Assay type: biochemical
Details: 20 μM ATP, 300 μM peptide, 20 nM GSK-3β, 30° C.; read-out: Ki values for GSK-3
The reader will find reported Ki values listed item by item below.

>  <SMILES REPRESENTATION>
COc1ccc(C2=NNC(=O)C2=CNc2ccc3c(c2)N(C(C)=O)CC3)cc1

>  <MEASUREMENT>
< 100 nM

$$$$
>  <SMILES REPRESENTATION>
COc1ccc(C2=NNC(=O)C2=CNc2ccc(OC)c(O)c2)cc1

>  <MEASUREMENT>
< 100 nM

$$$$
>  <SMILES REPRESENTATION>
COc1ccc(C2=NNC(=O)C2=NNc2ccc3c(c2)C(=O)c2ccccc2-3)cc1

>  <MEASUREMENT>
< 100 nM

$$$$
>  <SMILES REPRESENTATION>
COc1cccc(C2=NNC(=O)C2=NNc2ccc(C(F)(F)F)cc2)c1

>  <MEASUREMENT>
< 100 nM

$$$$
>  <SMILES REPRESENTATION>
COc1ccc(N/N=C2\C(=O)NN=C2c2ccccn2)cc1

>  <MEASUREMENT>
100 to 1000 nM

$$$$

Quick one: Ki for O=C1NN=C(c2ccccn2)C1=NNc1ccc(Cl)cc1 ?
100 to 1000 nM

Quick one: Ki for O=C1NN=C(c2ccc(N3CCOCC3)cc2)C1=NNc1ccc2c(c1)C(=O)c1ccccc1-2 ?
< 100 nM

Quick one: Ki for N#Cc1ccc(C2=NNC(=O)C2=NNc2ccc(Cl)cc2)cc1 ?
< 100 nM

Quick one: Ki for COc1cc(C2=NNC(=O)C2=NNc2ccc(OC)c(N3CCN(C)CC3)c2)ccc1OCc1ccccc1 ?
< 100 nM

Quick one: Ki for COc1cccc(C2=NNC(=O)C2=NNc2cccc(C(F)(F)F)c2)c1 ?
< 100 nM

Quick one: Ki for COc1ccc(C2=NNC(=O)C2=NNc2ccc(Oc3ccccc3)cc2)cc1OC ?
< 100 nM

Quick one: Ki for COc1cc(OC)c(NN=C2C(=O)NN=C2c2ccc(OC)c(OC)c2)c(OC)c1 ?
100 to 1000 nM

Quick one: Ki for O=C1NN=C(c2ccncc2)C1=NNc1ccc(Cl)cc1 ?
< 100 nM

Quick one: Ki for CCN(CC)c1ccc(N/N=C2\C(=O)NN=C2c2ccc(OC)cc2)cc1 ?
< 100 nM

Quick one: Ki for COc1ccc(C2=NNC(=O)C2=NNc2ccc(OC)c(-c3cc(OC)c(OC)c(OC)c3)c2)cc1OC ?
< 100 nM

Quick one: Ki for O=C1NN=C(c2ccccn2)/C1=N/Nc1ccccc1Cl ?
100 to 1000 nM

Quick one: Ki for COc1cccc(N/N=C2\C(=O)NN=C2c2ccc(OC)c(OC)c2)c1 ?
< 100 nM

Quick one: Ki for COc1ccc(C2=NNC(=O)C2=NNc2cccc(Oc3ccccc3)c2)cc1OC ?
< 100 nM

Quick one: Ki for O=C1NN=C(c2ccccc2F)C1=NNc1ccc(Cl)cc1 ?
100 to 1000 nM

Quick one: Ki for COc1ccc(N/N=C2\C(=O)NN=C2c2cccc(OC)c2)cc1 ?
< 100 nM

Quick one: Ki for COc1ccc(C2=NNC(=O)C2=NNc2ccc(OC)c(N3CCOCC3)c2)cc1OC ?
< 100 nM

Quick one: Ki for COc1ccc(C2=NNC(=O)/C2=N\Nc2ccc(N3CCOCC3)cc2)cc1 ?
< 100 nM

Quick one: Ki for COc1ccc(C2=NNC(=O)C2=NNc2ccc(Cl)cc2)cc1OC ?
< 100 nM

Quick one: Ki for COc1ccc(C2=NNC(=O)C2=NNc2cccc(Oc3ccccc3)c2)cc1 ?
< 100 nM

Quick one: Ki for COc1ccc(C2=NNC(=O)/C2=N\Nc2cccc(Cl)c2)cc1 ?
< 100 nM

###

Biological target: GSK-3β (AA 1-420) (Homo sapiens)
Construct: GSK-3β (AA 1-420)
Assay: Ki determination for the inhibition of GSK-3, standard coupled enzyme system
Assay type: biochemical
Details: 20 μM ATP, 300 μM peptide, 20 nM GSK-3β, 30° C.; read-out: Ki values for GSK-3
pKi: −log10 of the molar value.
TEST READOUT: pKi

Example cases with answers are listed next.
>  <SMILES REPRESENTATION>
COc1ccc(C2=NNC(=O)C2=NNc2ccc(OC)c(N3CCN(C)CC3)c2)cc1OC

>  <MEASUREMENT>
> 7.00

$$$$
>  <SMILES REPRESENTATION>
COc1ccc(C2=NNC(=O)C2=NNc2ccc(-c3ccc(F)cc3)cc2)cc1OC

>  <MEASUREMENT>
> 7.00

$$$$
>  <SMILES REPRESENTATION>
COc1cccc(C2=NNC(=O)C2=NNc2ccc(-c3ccc(F)cc3)cc2)c1

>  <MEASUREMENT>
6.00 to 7.00

$$$$

Now, please, on to the next molecule.
Quick one: pKi for COc1ccc(Nc2ccc(NC=C3C(=O)NN=C3c3ccc(OC)cc3)cc2)cc1 ?
6.00 to 7.00
